Tested on: EKVX NSCLC
protocol: NCI-60 one-dose screen, 48 h (100 = growth as untreated, 0 = no growth, -100 = all killed)
conditionSet: 10 µM unless noted
About 83,000 compounds went through this panel and 20% of them were active in at least one assay; those are over-represented in the sample as a whole.
Listed next: entries and their corresponding growth.
observable: growth (%)

> print(dat)
                                   compound  assayedsystem  observable  unitannotation  reported
1        CC(=O)C1=NN(c2ccc(Cl)cc2)C(=O)CN1C     EKVX NSCLC      growth               %      95.7
2  CS(=O)c1nccc(-c2c(-c3ccc(F)c(OCCc4ccccc4)c3)nc3sccn23)n1 (stereo not given)     EKVX NSCLC      growth               %      99.9
3  CC(C)(C)OC(=O)N1CCN(S(=O)(=O)/N=C2\NC(=O)NC2=C(Cl)Cl)CC1     EKVX NSCLC      growth               %      90.8
4  C=CCn1c(SCC(=O)Nc2cccc(C(=O)/C=C/c3ccc(OC)c(OC)c3)c2)nc2ccccc2c1=O     EKVX NSCLC      growth               %       100
5  O=C(CN1CCN(c2cc(=O)n(-c3ccccc3)c3ccccc23)CC1)Nc1ccc([N+](=O)[O-])cc1     EKVX NSCLC      growth               %      88.7

---

Test system: UO-31 renal
protocol: NCI-60 one-dose screen, 48 h
conditionSet: 10 µM unless noted
The panel holds about 83,000 compounds, 20% with a hit somewhere; the sample as a whole holds those more often. Calls of active or inactive are those of the source. Rule for the calls: active = growth percent below 10; inactive = the rest.
Labels: 1.0 (active), 0.0 (inactive)

> print(dat)
                                    molecule  classname
 1  Oc1ccc(CSc2nnc(-c3ccc(Oc4ccccc4)cc3)o2)c2cccnc12        1.0
 2  Cc1ccc(/C=C/CC(=O)Nc2ccc(C(=O)Nc3ccc(F)cc3N)cc2)cn1        0.0
 3  CCOC(=O)c1c(Nc2ccccc2)nn2c(-c3ccc(OC)c(OC)c3)ccnc12        0.0
 4    Cc1ccc(/C=C/c2nn3c(-c4ccco4)nnc3s2)cc1        0.0
 5         C/C=C/C=C1\C[C@H]2CO[C@H](O2)C1=O        0.0
 6  CCOC(=O)C1=C(C)N=C2Sc3ccccc3N2C1c1ccccc1 (stereo not given)        0.0
 7  COc1ccc(/C=C/C(=O)c2nnn(-c3ccc(Br)cc3)c2C)cc1OC        0.0
 8  O=C1c2c(c3c4cccnc4[nH]c3c3ccc4ccccc4c23)C(=O)N1CCN1CCCCC1        0.0
 9  O=C(/C=C/c1cn(-c2ccccc2)nc1-c1ccc(Cl)cc1)c1cc2ccccc2oc1=O        0.0
10  c1ccc(-c2n(Cc3ccc4ccccc4c3)c3c4ccccc4c4ccccc4c3[n+]2Cc2ccc3ccccc3c2)cc1        1.0

---

System: SK-MEL-28 melanoma
protocol: NCI-60 one-dose screen, 48 h
conditionSet: 10 µM unless noted
Compounds without any hit were thinned out: in the full panel of roughly 83,000, 20% have a hit. Calls of active or inactive are those of the source. How the source made its calls: active means growth percent below 10; inactive means the rest.
Labels: active, inactive

molecule	className
CCCC(=O)NC(c1cccnc1)c1cc(Cl)c2cccnc2c1O (stereo unspecified)	inactive
CN1CCN(c2ccc(C(=O)/C=C/c3ccc(Cl)c(C(F)(F)F)c3)cc2)CC1	inactive
Oc1ccccc1-c1nnc(SCc2ccc(O)c3ncccc23)o1	inactive
Cn1cc(-c2nn3cc(-c4cccnc4)nc3s2)c2ccccc21	inactive
COc1ccc(-c2ccc3c4c(cccc24)C(=O)N(N2C(=O)c4cccc5cccc(c45)C2=O)C3=O)cc1	inactive
O=C(CCCCCCN1CC(=O)N2[C@@H](c3ccccc3)c3[nH]c4ccccc4c3C[C@H]2C1=O)NO	inactive
O=C(/C=C1\C=CN(CCCCF)c2ccccc21)n1ccc2ccccc21	inactive
COc1ccc(-c2cc(-c3cccc4ccccc34)n3c(n2)nc2ccccc23)cc1	inactive
CC[C@@](C)(NC(=O)C(C)(C)NC(=O)[C@@H](NC(=O)[C@@H]1CCCN1C(=O)C(C)(C)NC(=O)[C@H](CC(C)C)NC(=O)CNC(=O)C(C)(C)NC(=O)[C@@H](NC(=O)C(C)(C)NC(=O)[C@H](CCC(N)=O)NC(=O)[C@H](C)NC(=O)C(C)(C)NC(=O)[C@H](C)NC(=O)C(C)(C)NC(=O)[C@H](C)NC(=O)C(C)(C)NC(C)=O)C(C)C)C(C)C)C(=O)N[C@@H](CCC(N)=O)C(=O)N[C@@H](CCC(N)=O)C(=O)N[C@H](CO)CC1CCCCC1	inactive
COc1cc(-c2nc(SCc3ccc(C)cc3)[nH]c(=O)c2C#N)ccc1OCc1ccccc1	inactive
O=C1c2c(c3c4cc(Br)ccc4[nH]c3c3ccc4ccccc4c23)C(=O)N1CCN1CCCCC1	inactive
Brc1cccc(/C=N/Nc2nc(N/N=C/c3cccc(Br)c3)nc(N3CCOCC3)n2)c1	inactive
COc1ccc(-c2ccnc3c(C#N)c(Nc4ccccc4)nn23)cc1OC	inactive
O=S(=O)(Nc1ccc(C2CC2)cc1)c1ccc(-c2cnc(C3CC3)o2)cc1	inactive
O=C1c2cc(Br)ccc2-n2c1nc1cc(Br)ccc1c2=O	inactive
N#C/C(=C\c1ccc2ccccc2c1)C(=O)Nc1sc2c(c1C#N)CCC2	inactive
COc1cc(OC)c(S(N)(=O)=O)cc1C(=O)/C=C/c1ccccc1	inactive
Cc1ccc(C2CC(c3ccc(Nc4nc(NCCO)nc(Nc5ccc(Cl)cc5)n4)cc3)=Nc3c(N)nc(N)nc3N2)cc1 (stereo unspecified)	inactive
COc1cc2oc(-c3cccc(NC(=O)c4cc(NC(=O)[C@H](C)N)ccc4Cl)c3)cc(=O)c2c(OC)c1OC	inactive
CCOC(=O)c1c(NCC(=O)Nc2cccc([N+](=O)[O-])c2)sc2c1CCCC2	active
C=CCn1c(SCC(=O)Nc2cccc(C(=O)/C=C/c3ccc(Br)cc3)c2)nc2ccccc2c1=O	inactive
N/C(=N\OC(=O)CSc1nc2ccccc2s1)c1ccc2ccccc2c1	inactive
CS(=O)(=O)c1ccc(-c2nn(-c3ccccc3)cc2/C=N/NC(=O)c2ccncc2)cc1	inactive
CC(C)=CCc1c2c(c(O)c3c1O[C@]14C(=C[C@@H]5C[C@H]1C(C)(C)O[C@@]4(C/C=C(/C)C(=O)O)C5=O)C3=O)CC(O)C(C)(C)O2 (stereo partly specified)	active
O=C(CN1C(=O)S/C(=C\c2ccccc2)C1=O)Nc1ccc(C(=O)/C=C/c2cc3ccccc3nc2Cl)cc1	inactive
CC(=O)NC(C)(C)C(=O)N[C@@H](C)C(=O)NC(C)(C)C(=O)N[C@@H](C)C(=O)NC(C)(C)C(=O)N[C@@H](C)C(=O)N[C@@H](CCC(N)=O)C(=O)NC(C)(C)C(=O)N[C@H](C(=O)NC(C)(C)C(=O)NCC(=O)N[C@@H](CC(C)C)C(=O)NC(C)(C)C(=O)N1CCC[C@H]1C(=O)N[C@H](C(=O)NC(C)(C)C(=O)NC(C)(C)C(=O)N[C@@H](CCC(N)=O)C(=O)N[C@@H](CCC(N)=O)C(=O)N[C@H](CO)CC1CCCCC1)C(C)C)C(C)C	active
CS(=O)c1nccc(-c2c(-c3ccc(F)c(OCc4ccccc4)c3)nc3sccn23)n1 (stereo unspecified)	inactive
O=C(Nc1cccc(-c2nc(-c3ccc(NC(=O)c4cccs4)cc3Cl)no2)c1)Nc1ccc(NC(=O)C2CC2)c(C(F)(F)F)c1	active
Fc1ccccc1/C=C(/C1=NCCN1)n1cnc2ccccc21	inactive
N#Cc1ccc(S(=O)(=O)Nc2ccc(-c3cnc(N)[nH]3)cc2)cc1	inactive
O=C(CSc1nnc(-c2ccc(Cl)cc2)n1-c1ccccc1)Nc1ccc(F)cc1	inactive
